Tgt: acetylcholine receptor (Homo sapiens, UniProt P02708)
Sequence (P02708 21-457): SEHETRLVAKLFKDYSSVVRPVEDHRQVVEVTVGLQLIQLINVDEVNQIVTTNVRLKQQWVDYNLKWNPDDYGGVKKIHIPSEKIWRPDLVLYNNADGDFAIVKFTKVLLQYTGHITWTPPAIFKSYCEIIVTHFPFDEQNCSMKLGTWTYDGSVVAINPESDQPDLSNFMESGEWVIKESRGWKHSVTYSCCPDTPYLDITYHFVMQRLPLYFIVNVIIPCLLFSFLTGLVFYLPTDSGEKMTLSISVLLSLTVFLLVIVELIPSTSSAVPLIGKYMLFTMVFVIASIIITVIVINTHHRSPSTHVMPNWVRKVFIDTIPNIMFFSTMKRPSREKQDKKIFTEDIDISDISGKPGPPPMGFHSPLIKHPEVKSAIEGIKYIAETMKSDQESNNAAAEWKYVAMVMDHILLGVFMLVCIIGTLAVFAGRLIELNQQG
Protocol: SPR binding affinity (RU) of optimized 5mer/6mer/7mer peptides, Examples 6-7
Condition set: SPR, Resonance Units; peptides tested at 10 μM; 6mer-2 Bottom sequence
# if value of Binding affinity reaches 20 Ru, tag criterion met; if it stays below, tag criterion not met

As a guide, the following entries are already answered.
6mer-2-657 (RKHERK); criterion met
6mer-2-851 (KFWWRR); criterion not met
6mer-2-926 (RPTVKR); criterion met
6mer-2-824 (RITNKR); criterion met
6mer-2-825 (KIHARK); criterion not met
6mer-2-775 (KMSMKK); criterion met
6mer-2-663 (KFAGRR); criterion met
6mer-2-875 (RIDHRK); criterion not met
6mer-2-928 (KFCIRR); criterion met
6mer-2-698 (KCEDKK); criterion met

Determine whether this substance has Binding affinity no lower than 20 Ru: 6mer-2-891 (RTSIRK) criterion met

Determine whether this substance has Binding affinity no lower than 20 Ru: 6mer-2-673 (RFCGRK) criterion met

* * *

Tgt: acetylcholine receptor (Homo sapiens, UniProt P02708)
Protocol: SPR binding affinity (RU) of optimized 5mer/6mer/7mer peptides, Examples 6-7
Condition set: SPR; XRRQRR-6mer and RRQRRX-6mer
I'd appreciate it if you could supply Binding affinity, relative value to the RRQRR sequence values for the items below.
Give bare numbers.

Some solved cases for reference:
3603 (VRRQRR) [compound 3603]; 135
3627 (RRQRRI) [compound 3627]; 133
3621 (RRQRRG) [compound 3621]; 109
3628 (RRQRRM) [compound 3628]; 122
3618 (HRRQRR) [compound 3618]; 164
3602 (ARRQRR) [compound 3602]; 129

Please give Binding affinity, relative value to the RRQRR sequence for each item listed below.
1. 3635 (RRQRRQ) [compound 3635]
2. 3634 (RRQRRN) [compound 3634]
3. 3609 (WRRQRR) [compound 3609]
4. 3636 (RRQRRK) [compound 3636]
5. 3639 (RRQRRD) [compound 3639]
6. 3620 (ERRQRR) [compound 3620]
7. 3617 (RRRQRR) [compound 3617]

101
109
138
175
65
147
189

* * *

Tgt: acetylcholine receptor (Homo sapiens, UniProt P02708)
Protocol: SPR binding affinity (RU) of optimized 5mer/6mer/7mer peptides, Examples 6-7
Condition set: 6mer-2 Top sequence; SPR; peptides tested at 10 μM
Method: Based on the frequencies of occurrence of the top 7 amino acids from Table 7 in Example 5, 600 peptides comprising these amino acids (top combinations) and those comprising the 13 less frequently occurring amino acids (bottom combinations) were synthesized for each series of 5mer, 6mer-1, and 6mer-2. The binding affinity of each sequence for the acetylcholine receptor was measured using Surface Plasmon Resonance (SPR) analysis method. The peptides were tested at a concentration of 10 μM. […]
Measured endpoint: Binding affinity (Ru)
Give bare numbers, in Ru.

6mer-2-157 (RSYRKK); 153

Please give Binding affinity for each item listed below.
1. 6mer-2-151 (KQLRKR)
2. 6mer-2-38 (RSYYKR)
3. 6mer-2-74 (RWIYKR)
4. 6mer-2-195 (KSRQKR)
5. 6mer-2-180 (RLRLKR)
6. 6mer-2-77 (KQQTRR)

142
136
136
154
142
123

Please give Binding affinity for each item listed below.
1. 6mer-2-2 (RWYLKR)
2. 6mer-2-158 (RSFLRR)
3. 6mer-2-73 (RLYTKR)
4. 6mer-2-182 (KLFYKK)

1: 139; 2: 145; 3: 139; 4: 139

Please give Binding affinity for each item listed below.
1. 6mer-2-196 (KSQRKK)
2. 6mer-2-84 (KQRYKK)
3. 6mer-2-117 (KRYTRK)
4. 6mer-2-125 (KVQLRR)
5. 6mer-2-112 (RLQQKR)
6. 6mer-2-87 (RRLTKR)

[121, 139, 148, 142, 142, 142]

Please give Binding affinity for each item listed below.
1. 6mer-2-90 (KGRTKR)
2. 6mer-2-98 (RRQQRR)
3. 6mer-2-200 (RGVQRK)
4. 6mer-2-105 (RGFTRR)
5. 6mer-2-42 (KLLSKR)
6. 6mer-2-63 (KSFRKR)
7. 6mer-2-140 (KGRLKK)

[133, 148, 121, 151, 126, 121, 142]

* * *

I'd appreciate it if you could supply Binding affinity values for the items below.
Tgt: acetylcholine receptor (Homo sapiens, UniProt P02708)
Protocol: SPR binding affinity (RU) of optimized 5mer/6mer/7mer peptides, Examples 6-7
Condition set: SPR, peptides tested at 10 μM; 6mer-1 Bottom sequence (Table 11)
Give bare numbers, in Ru.

6mer-1-832 (RKYWGK); 12
6mer-1-868 (KKHHAR); 14
6mer-1-996 (RRPPWK); 39

Please give Binding affinity for each item listed below.
1. 6mer-1-857 (KRPAFK)
2. 6mer-1-818 (RKIKAR)
3. 6mer-1-994 (KKHEFR)
4. 6mer-1-928 (KRYCPK)
5. 6mer-1-933 (RRPWNR)
6. 6mer-1-833 (RRYKNR)

14
14
37
30
28
19

* * *

Tgt: acetylcholine receptor (Homo sapiens, UniProt P02708)
Protocol: SPR binding affinity (RU) of optimized 5mer/6mer/7mer peptides, Examples 6-7
Condition set: SPR, Resonance Units; peptides tested at 10 μM; 6mer-1 Bottom sequence (Table 11)
I'd appreciate it if you could supply Binding affinity values for the items below.
Answers are plain numbers, in Ru.

6mer-1-733 (KKKMFK); 21

Please give Binding affinity for each item listed below.
1. 6mer-1-675 (KKIWKR)
2. 6mer-1-794 (RKYEPK)
3. 6mer-1-711 (RRATHR)

[21, 11, 19]

Please give Binding affinity for each item listed below.
1. 6mer-1-605 (RKNADR)
2. 6mer-1-774 (KKEMER)
3. 6mer-1-746 (RKMSVK)
4. 6mer-1-762 (KKTKAR)
5. 6mer-1-732 (RRAAVR)
6. 6mer-1-721 (RKAMEK)
7. 6mer-1-754 (RKKKMK)
8. 6mer-1-617 (KRHNVR)

1. 20
2. 21
3. 24
4. 13
5. 26
6. 22
7. 24
8. 31

Please give Binding affinity for each item listed below.
1. 6mer-1-668 (RKATVK)
2. 6mer-1-631 (RRYSDR)
3. 6mer-1-629 (RKMDAK)
4. 6mer-1-685 (RRESWK)

[17, 13, 11, 14]

* * *

I'd appreciate it if you could supply Binding affinity values for the items below.
Tgt: acetylcholine receptor (Homo sapiens)
Protocol: SPR binding affinity (RU) of optimized 5mer/6mer/7mer peptides, Examples 6-7
Condition set: SPR, peptides tested at 10 μM; 6mer-1 Top sequence
Experimental: Based on the frequencies of occurrence of the top 7 amino acids from Table 7 in Example 5, 600 peptides comprising these amino acids (top combinations) and those comprising the 13 less frequently occurring amino acids (bottom combinations) were synthesized for each series of 5mer, 6mer-1, and 6mer-2. The binding affinity of each sequence for the acetylcholine receptor was measured using Surface Plasmon Resonance (SPR) analysis method. The peptides were tested at a concentration of 10 μM. […]
Answers are plain numbers, in Ru.

6mer-1-522 (RKRRLR); 126
6mer-1-587 (KKQLLK); 148
6mer-1-418 (RRQVRK); 123
6mer-1-454 (RKVLRR); 124

Please give Binding affinity for each item listed below.
1. 6mer-1-509 (RKWLRK)
2. 6mer-1-562 (KRSYQR)
3. 6mer-1-575 (KRWVRR)
4. 6mer-1-531 (RKGQTK)
5. 6mer-1-409 (RRWISR)
6. 6mer-1-431 (RRRFRR)
7. 6mer-1-523 (KRRRSK)
8. 6mer-1-449 (KRGRCK)

1: 128; 2: 148; 3: 148; 4: 135; 5: 144; 6: 144; 7: 139; 8: 135

* * *

Tgt: acetylcholine receptor (Homo sapiens, UniProt P02708)
Protocol: SPR binding affinity (RU) of optimized 5mer/6mer/7mer peptides, Examples 6-7
Condition set: SPR, peptides tested at 10 μM; 6mer-1 Bottom sequence (Table 11)
Rule: Binding affinity below 30 Ru gives met. Equal to or above 30 Ru gives not met.

6mer-1-817 (RRIMKR); met

Does the reported Binding affinity of the following substance sit strictly below 30 Ru? 6mer-1-845 (KKIDKK) met

* * *

Tgt: acetylcholine receptor (Homo sapiens)
Protocol: SPR binding affinity (RU) of optimized 5mer/6mer/7mer peptides, Examples 6-7
Condition set: SPR, Resonance Units; peptides tested at 10 μM; 6mer-1 Bottom sequence (Table 11)
Rule: Binding affinity below 20 Ru gives 1. Equal to or above 20 Ru gives 0.

As a guide, the following entries are already answered.
6mer-1-608 (KKACMR); 1
6mer-1-705 (KRTEWR); 1
6mer-1-640 (RRNCWR); 0
6mer-1-632 (RKDTAR); 1
6mer-1-712 (KKPSNK); 0

Does the reported Binding affinity of the following substance sit strictly below 20 Ru? 6mer-1-669 (KRNMAK) 0

Does the reported Binding affinity of the following substance sit strictly below 20 Ru? 6mer-1-752 (KRPTEK) 1

Does the reported Binding affinity of the following substance sit strictly below 20 Ru? 6mer-1-709 (KKFKPK) 0

Does the reported Binding affinity of the following substance sit strictly below 20 Ru? 6mer-1-664 (KRDHIK) 0

Does the reported Binding affinity of the following substance sit strictly below 20 Ru? 6mer-1-670 (KKDWNR) 1
